The origin of these recorded values is patent US9382228B2.

Measured pIC50, listed per entry.
Biological target: unphosphorylated c-FMS kinase (uFMS, Seq. ID no. 1) (Homo sapiens, UniProt P07333)
Sequence (P07333 538-972): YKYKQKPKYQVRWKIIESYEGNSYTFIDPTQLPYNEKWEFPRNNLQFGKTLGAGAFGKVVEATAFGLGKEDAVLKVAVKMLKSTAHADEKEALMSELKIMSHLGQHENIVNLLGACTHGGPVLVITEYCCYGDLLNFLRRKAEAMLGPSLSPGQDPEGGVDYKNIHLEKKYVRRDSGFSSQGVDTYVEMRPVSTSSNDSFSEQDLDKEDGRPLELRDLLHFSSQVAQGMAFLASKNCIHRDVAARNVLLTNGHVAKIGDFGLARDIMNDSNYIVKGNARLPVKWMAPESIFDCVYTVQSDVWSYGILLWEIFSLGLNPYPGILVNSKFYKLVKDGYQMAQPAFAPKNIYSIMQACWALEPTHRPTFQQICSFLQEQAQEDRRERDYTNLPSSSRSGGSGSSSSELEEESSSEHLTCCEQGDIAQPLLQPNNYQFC
Assay: biochemical
Conditions: uFMS, enzymatic assay, ATP 500 μM
pIC50: −log10 of the molar value.

Answered examples (2):
SMILES INPUT: Cc1nc(NC(=O)NC(=O)C2CC3(CCC3)C2)ccc1Oc1ccnc(-c2cnn(C)c2)c1
REPORTED: > 8.00

SMILES INPUT: Cn1cc(-c2cc(Oc3ccc(NC(=O)NC(=O)C4CC(C)(C)C4)nc3)ncn2)cn1
REPORTED: > 8.00

Incoming: Provide measured pIC50 value, entry: COC(C)(C)C(=O)NC(=O)Nc1ccc(Oc2ccnc(-c3ccc(C)nc3)c2)cn1
Outgoing: > 8.00

Incoming: Please supply the value of reported pIC50 for the item Cn1cc(-c2cc(Oc3cnc(NC(=O)NC(=O)C(C)(C)C)cn3)ccn2)cn1
Outgoing: 7.00 to 8.00

Incoming: Give the value of pIC50 reported for the following: COC(C)(C)C(=O)NC(=O)Nc1cc(C)c(Oc2ccnc(-n3cnc(C)c3)c2)cn1
Outgoing: > 8.00
